target: GABA transporter (Mus musculus) (UniProt P31650+P31651+P31649+P31648); assay: In vivo anticonvulsant effect measured as rotarod in mice after ip administration; type: functional, organism-based
REPORTED_ENDPOINT: ED50

Cl.O=C(O)[C@H]1CCCN(CCOCCC2c3ccccc3CCc3ccccc32)C1; > 60 mg/kg
Cl.O=C(O)[C@@H]1CCCN(CCOCCN2c3ccccc3C=Cc3ccccc32)C1; > 30 mg/kg
Cl.O=C(O)[C@@H]1CCCN(CCOCCN2c3ccccc3CCc3ccc(Cl)cc32)C1; > 30 mg/kg
O=C(O)C1CCCN(CCC=C2c3ccccc3CCc3ccccc32)C1 (centres undefined); > 60 mg/kg
Cl.O=C(O)[C@@H]1CCCN(CCCOCC=C2c3ccccc3CCc3ccccc32)C1; > 150 mg/kg
Cl.O=C(O)[C@@H]1CCCN(CCOCCN2c3ccccc3CCc3ccccc32)C1; 85 mg/kg
Cl.O=C(O)CC1CCN(CCOCCN2c3ccccc3CCc3ccccc32)C1 (centres undefined); 100 mg/kg
Cl.O=C(O)[C@@H]1CCCN(CCOCCN2c3cc(Cl)ccc3CCc3ccc(Cl)cc32)C1; > 100 mg/kg

Turning now to a further compound:
query: Return reported ED50. Input compound: "Cl.O=C(O)[C@@H]1CCCN(CCOCCCN2c3ccccc3CCc3ccccc32)C1"
result: > 60 mg/kg
